- assayed system: μ-opioid receptors (MOP receptors) (Mus musculus, UniProt P42866)
- Construct: expressed in transfected cells; host or cells: HEK293
- Sequence (P42866 whole entry): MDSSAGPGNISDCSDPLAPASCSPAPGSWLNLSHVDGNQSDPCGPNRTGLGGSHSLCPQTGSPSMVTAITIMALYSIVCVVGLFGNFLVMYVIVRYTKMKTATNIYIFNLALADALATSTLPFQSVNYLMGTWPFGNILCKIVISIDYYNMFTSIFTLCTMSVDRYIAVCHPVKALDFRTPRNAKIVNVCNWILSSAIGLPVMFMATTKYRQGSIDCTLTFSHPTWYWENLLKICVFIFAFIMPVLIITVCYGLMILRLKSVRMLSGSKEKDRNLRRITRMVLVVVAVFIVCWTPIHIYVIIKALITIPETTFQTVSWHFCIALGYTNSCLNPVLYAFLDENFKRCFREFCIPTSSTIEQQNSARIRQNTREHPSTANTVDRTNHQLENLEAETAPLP
- Assay type: cell-based
- protocol conditions: Conc 10^−11 M
# % of forskolin stimulated cyclic AMP response per entry

              structure_smiles_string  observed_value
0       Cc1c(-c2ccc(F)cc2)no[n+]1[O-]           75.7%
1             Cc1c(C(=O)O)no[n+]1[O-]           88.0%
2          Cc1c(-c2ccccc2)no[n+]1[O-]           66.3%
3  O=C(O)c1c(-c2ccc(F)cc2)no[n+]1[O-]           77.5%

Proceed to the following item.
Fill in reported % of forskolin stimulated cyclic AMP response for this entry: [O-][n+]1onc(-c2ccc(F)cc2)c1-c1ccc(F)cc1 29.9%
